# System: SF-539 CNS
# assayMethodText: NCI tumour cell line growth inhibition, 48 h; in the data active = GI50 below about 0.43 µM; inactive = the rest
Just give me one of these, please: Yes (active), No (inactive)

QUERY: Please state the recorded outcome for this compound: `Clc1ccc2nc(CI)c(CI)nc2c1`
RESULT: No

QUERY: Please state the recorded outcome for this compound: `CC(C)c1cccc(O)c(=O)c1`
RESULT: No

QUERY: Please state the recorded outcome for this compound: `C=C1C(=O)O[C@H]2[C@H]1CC/C(Cn1cc(-c3ccc(F)cc3)nn1)=C\CC[C@@]1(C)O[C@@H]21`
RESULT: Yes

QUERY: Please state the recorded outcome for this compound: `CC(=O)O[C@H]1C(=O)[C@@]2(C)[C@H]([C@H](OC(=O)c3ccccc3)[C@]3(O)C[C@H](OC(=O)[C@H](OC(=O)OC[C@H]4COC(C)(C)O4)[C@@H](NC(=O)c4ccccc4)c4ccccc4)C(C)=C1C3(C)C)[C@]1(OC(C)=O)CO[C@@H]1C[C@@H]2O`
RESULT: Yes

QUERY: Please state the recorded outcome for this compound: CC([C@H]1CC=C2C3CCC4=C[C@@H](N(C)C)CC[C@]4(C)C3CC[C@@]21C)N(C)C (stereo not given in full)
RESULT: No
